tested on: SN12C renal; assay: NCI tumour cell line growth inhibition, 48 h
TEST READOUT: TGI

{"columns": ["SMILES DATA", "SYSTEM UNDER TEST", "TGI"],
 "data": [
  ["CCCCCCCCCCCCc1ccsc1-c1ccc(-c2ccc(-c3sc(-c4cc(CCCCCCCCCCCC)c(-c5ccc(-c6ccc(-c7sccc7CCCCCCCCCCCC)s6)s5)s4)cc3CCCCCCCCCCCC)s2)s1", "SN12C renal", "> 100 µM"],
  ["CCCCCCCCCCc1c2nc(c(CCCCCCCCCC)c3ccc([nH]3)c(CCCCCCCCCC)c3ccc([nH]3)c(CCCCCCCCCC)c3nc1C=C3)C=C2", "SN12C renal", "> 100 µM"],
  ["O=c1n(-c2ccc(Cl)c(Cl)c2)c(=O)n(-c2ccc(Cl)c(Cl)c2)c(=O)n1-c1ccc(Cl)c(Cl)c1", "SN12C renal", "> 31.6 µM"],
  ["CC(C)(C)/C(O)=C\\c1nc2ccc(C(F)(F)F)cc2[nH]c1=O", "SN12C renal", "> 100 µM"],
  ["CC(=O)NNc1nc(C)c(C(=O)/C=C/C=C/c2ccccc2)s1", "SN12C renal", "> 100 µM"],
  ["c1ccc2c(c1)nnn2CN1CCOCC1", "SN12C renal", "> 100 µM"],
  ["Cc1cc(Cl)nc(Nc2nc3ccccc3[nH]2)n1", "SN12C renal", "> 100 µM"]
]}

Could you now look at the following compound, please?
What TGI value was documented for this compound, COc1nc(N)c(N=O)c(OCc2ccccc2)n1 ? > 10 µM

* * *

The entries below are paired with their reported TGI.
test system: LOX IMVI melanoma; experiment: NCI tumour cell line growth inhibition, 48 h

{"columns": ["COMPOUND", "TGI"],
 "data": [
  ["Cc1cn(CCCC2=NCCCN2)c(=O)[nH]c1=O", "> 100 µM"],
  ["N#CC1(Nc2ccc(Br)cc2)CCCC1", "> 100 µM"],
  ["CCO/C(O)=C(/C(=N)N1CCOCC1)C(=O)Nc1ccc(Cl)cc1", "> 100 µM"],
  ["CCOC(=O)CC[C@H](NC(=O)c1[nH]cnc1/N=N/N(C)C)C(=O)OCC", "> 100 µM"],
  ["NNC1=Nc2ccc(Cl)cc2C(=S)N2CSCC12 (stereo unspecified)", "> 100 µM"]
]}

Could you now look at the following compound, please?
What reported TGI corresponds to Clc1ccc(-c2nnc3c4nnc(-c5ccc(Cl)cc5Cl)n4c4ccccc4n23)c(Cl)c1 on LOX IMVI melanoma? > 100 µM

* * *

system: T-47D breast; assay: NCI tumour cell line growth inhibition, 48 h
The entries below are paired with their reported TGI.

Record excerpt, results attached:
{"columns": ["MOLECULE", "MEASURED"],
 "data": [
  ["Cc1cc(S(=O)(=O)n2cc[nH]c2=O)c(SCCCN(C)C)cc1Cl", "> 100 µM"],
  ["COC(=O)C1C(OS(=O)(=O)O)CCC2CN3CCc4c([nH]c5ccccc45)C3CC21 (centres undefined)", "> 100 µM"]
]}

What TGI value was documented for this molecule, COc1ccc2c(c1)n([O-])c1cc(C#N)ccc1[n+]2=O ? 48.6 µM

What TGI value was documented for this molecule, CC(=O)OCC1OC(N2C(=O)NC(=O)C3C=C4CCCCC4=CC32)C(OC(C)=O)C1OC(C)=O (centres undefined) ? > 100 µM

* * *

The entries below are paired with their reported TGI.
system: DU-145 prostate; test: NCI tumour cell line growth inhibition, 48 h

Record excerpt, results attached:
{"columns": ["COMPOUND", "TGI"],
 "data": [
  ["COC(=O)C1=C(O)C(C(=O)OC)[C@@]2(O)[C@@H](C(=O)OC)C(c3ccc(OC(=O)/C=C/c4ccccc4)cc3)C[C@@H]1[C@@H]2C(=O)OC (stereo not given in full)", "> 100 µM"],
  ["C[C@]12CC[C@@H]3c4cc(Br)c(O)c(Br)c4CC[C@H]3[C@@H]1CC(Br)C2=O (stereo not given in full)", "> 100 µM"],
  ["COc1nc(N)c(N=O)c(OCc2ccccc2)n1", "> 10 µM"],
  ["C#Cc1cc(-c2nc3ccccc3s2)ccc1N", "39.5 µM"]
]}

What TGI value was documented for this compound, O=[N+]([O-])c1ccc2c(c1)c1nn2CCCCOc2nn(c3ccc([N+](=O)[O-])cc23)CCCCO1 ? > 100 µM

* * *

tested on: NCI-H23 lung; test: NCI tumour cell line growth inhibition, 48 h
The entries below are paired with their reported TGI.

Record excerpt, results attached:
{"columns": ["COMPOUND", "MEASURED"],
 "data": [
  ["COC(=O)C1=C(O)C(C(=O)OC)[C@@]2(O)[C@@H](C(=O)OC)C(c3ccc(OC(=O)/C=C/c4ccccc4)cc3)C[C@@H]1[C@@H]2C(=O)OC (some centres undefined)", "> 100 µM"],
  ["CCCCCCc1cc2c(C)c(C)c(=O)oc2cc1OCCCOc1cc2oc(=O)c(C)c(C)c2cc1CCCCCC", "> 100 µM"],
  ["CCOC(=O)CC[C@H](NC(=O)c1[nH]cnc1/N=N/N(C)C)C(=O)OCC", "> 100 µM"],
  ["CCOC(=O)C(COS(C)(=O)=O)(COS(C)(=O)=O)C(=O)OCC", "> 100 µM"],
  ["CCCCCC(=O)Nc1n[nH]nc1C#N", "> 100 µM"],
  ["O=C1/C=C/[C@@H](O)[C@@H]2C[C@@H](O)C[C@H]2/C=C/CCC[C@H](CCOCc2ccccc2)O1", "0.714 µM"],
  ["COC(=O)C1C(OS(=O)(=O)O)CCC2CN3CCc4c([nH]c5ccccc45)C3CC21 (centres undefined)", "> 100 µM"],
  ["O=C(Cc1n[nH]c(=O)c2ccccc12)OCc1c(Cl)cccc1Cl", "> 100 µM"]
]}

What TGI value was documented for this compound, COc1ccc(/C(C)=C(\c2ccc(Cl)cc2)c2ccc(OCCN3CCCCC3)cc2)cc1 ? 10.2 µM

What TGI value was documented for this compound, ClCc1ccccc1Cn1cnc2c(Cl)nc(Cl)nc21 ? 1.02 µM

* * *

The entries below are paired with their reported TGI.
test system: M14 melanoma; experiment: NCI tumour cell line growth inhibition, 48 h

Record excerpt, results attached:
{"columns": ["MOLECULE", "MEASURED"],
 "data": [
  ["COc1cc(C=C(c2ccc(N(C)C)cc2)c2ccc(N(C)C)cc2)c2ccccc2c1OC", "> 100 µM"],
  ["Cc1cc(S(=O)(=O)n2cc[nH]c2=O)c(SCCCN(C)C)cc1Cl", "> 100 µM"],
  ["Cc1cc(OCC(=O)O)c(Cl)cc1Cl", "> 100 µM"],
  ["CCOC(=O)[C@H]1O[C@@H]1C(=O)NC(CC(C)C)C(=O)NCCC(C)C (stereo partly drawn)", "> 100 µM"],
  ["COC(=O)C1C(OS(=O)(=O)O)CCC2CN3CCc4c([nH]c5ccccc45)C3CC21 (stereo not drawn)", "> 100 µM"]
]}

What TGI value was documented for this molecule, CC1=C(C(=O)Nc2ccc(F)c(Cl)c2)C(c2cccc(Cl)c2)NC(=S)N1 (stereo not drawn) ? 23.4 µM

What TGI value was documented for this molecule, Nc1nccc2c1ncn2[C@H]1C[C@H](O)[C@@H](CO)O1 ? > 100 µM

What TGI value was documented for this molecule, Cc1ccccc1OC(C)C(=O)NN1C(=O)CC(=O)NC1=S (stereo not drawn) ? > 100 µM

What TGI value was documented for this molecule, Cc1nc2ccccc2nc1NNc1ccccc1 ? 64.8 µM

What TGI value was documented for this molecule, O=S1c2ccccc2N=C(c2cccc3ccccc23)CC1c1cccc2ccccc12 (stereo not drawn) ? 28.1 µM

* * *

test system: BT-549 breast; assay: NCI tumour cell line growth inhibition, 48 h
TEST READOUT: TGI

What TGI value was documented for this compound, Cc1cc2c(O)c(c1)CN(Cc1ccccc1)Cc1cc(C)cc(c1O)CN(Cc1ccccc1)Cc1cc(C)cc(c1O)CN(Cc1ccccc1)C2 ? > 100 µM

What TGI value was documented for this compound, C=CC(=O)C#CC#CC/C=C\CCCCCCC ? > 20.6 µM

What TGI value was documented for this compound, COC(=O)C(Cc1c[nH]c2ccccc12)NP(=O)(O)OCC1OC(n2ccc(N)nc2=O)C(O)C1O (stereo not drawn) ? > 100 µM

* * *

tested on: SK-MEL-5 melanoma; assay: NCI tumour cell line growth inhibition, 48 h
TEST READOUT: TGI

What TGI value was documented for this compound, O=c1cc(-c2ccc3ccccc3c2)[nH]c2ncc(Cl)cc12 ? > 100 µM

What TGI value was documented for this compound, O=C(Nc1ccc(Cl)cc1)c1cc2c(cc1Cl)SC(NNCCO)=NS2(=O)=O ? > 100 µM

What TGI value was documented for this compound, O=C(Cc1n[nH]c(=O)c2ccccc12)OCc1c(Cl)cccc1Cl ? > 100 µM

What TGI value was documented for this compound, Cc1ccccc1OC(C)C(=O)NN1C(=O)CC(=O)NC1=S (stereo not given) ? > 100 µM

Origin of measurements: PubChem BioAssay (NCI)
